test_method_notes: binders of probe aFSTL3 on microarray, primary screen, stem cell growth factor project, biochemical, small-molecule microarray, fluorescence 635/667 (AID 1064);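 note: measures binding of the biotinylated anti-FSTL3 antibody to printed compounds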
condition_info: higher = more signal
composite z-score vs 0.2: at or above is met, below is not met.

- molecule: "CCCCC(O)C1C=CC2C(=O)N(c3ccccc3)C(=O)C2N1Nc1ccc(C(C)C)cc1 (configuration not stated)"
  group_label: "not met"
- molecule: "COc1cccc(/C=C/C=O)c1"
  group_label: "met"
- molecule: "COCCOC(=O)N1C(=O)[C@@]2(c3cc(C#CC4=CCCCC4)ccc31)[C@H](c1ccccc1OCCO)N1[C@H](c3ccccc3)[C@H](c3ccccc3)OC(=O)[C@H]1[C@@H]2C(=O)N1CCCCCCC1"
  group_label: "met"
- molecule: "NCCCCCNC(=O)[C@@H]1C[C@@H]2C(=O)NCC(=O)N2[C@@H]1c1cccc(OCCO)c1"
  group_label: "not met"
- molecule: "C=CCC(OC(C)=O)[C@@H]1[C@@H](N(Cc2cccc3ccccc23)C(=O)Cc2ccc(OC)cc2)c2cc(OCCCO)ccc2N1C(=O)c1ccc2ccccc2n1 (some centres not stated)"
  group_label: "not met"
- molecule: "C=C(C)C1CCC(C(O)C2C=CC3C(=O)N(C)C(=O)C3N2N2CCCCC2)CC1 (configuration not stated)"
  group_label: "met"
- molecule: "CC(C)(C)N1CC=CC23O[C@@H]4C=CCCOC(=O)C4[C@H]2C(=O)N(CCO)[C@@H]3C1=O (some centres not stated)"
  group_label: "not met"
- molecule: "O=C(NCc1ccccc1)[C@@H]1c2ccccc2C(=O)N(Cc2ccccc2C(F)(F)F)[C@H]1c1ccc(CO)cc1"
  group_label: "not met"
- molecule: "CC(=O)c1ccc(C(O)C2C=CC3C(=O)N(c4ccccc4)C(=O)C3N2Nc2ccc(C#N)cc2)cc1 (configuration not stated)"
  group_label: "not met"
- molecule: "COC(=O)[C@@]1(Cc2ccc(F)cc2)[C@H]2c3cc(C(=O)N4CCCC4)n(CCc4ccc(O)c(O)c4)c3C[C@H]2CN1C(=O)c1ccccc1"
  group_label: "met"
- molecule: "O=C(NCCCCCNC(=O)/C(Cc1ccccc1)=N/O)OCc1ccccc1"
  group_label: "not met"
- molecule: "CO[C@]12C=C(Br)[C@@H](C[C@@H]1c1cccc(C)c1)[C@@]1(CO1)C2=O"
  group_label: "not met"
- molecule: "COc1ccc(CCN2C(=O)[C@@]3(Cc4ccccc42)c2ccccc2C(=O)N(Cc2ccccc2OC)[C@H]3c2ccc(CO)cc2)cc1"
  group_label: "met"
- molecule: "C=C(COC)C(=O)CC[C@@H](OC(=O)c1cccnc1)c1ccc(OCCO)cc1"
  group_label: "not met"
- molecule: "CC(C)Cc1ccc(CN2CC[C@@H](NC(=O)Nc3ccccc3)C2)cc1"
  group_label: "not met"
- molecule: "C=C(/C(=C/C[C@H](OC(C)=O)c1ccccc1OCCO)c1cc(C(=O)OC)ccc1OC)C(C)C"
  group_label: "not met"
- molecule: "[N-]=[N+]=Nc1ccccc1C[C@]1(C(=O)N2CCOCC2)N=C(c2ccc(OCCCO)cc2)O[C@H]1c1ccccc1"
  group_label: "met"

----------
test_system: Focal adhesion kinase 1 (Homo sapiens) (UniProt Q05397)
Sequence (Q05397 whole entry, looked up): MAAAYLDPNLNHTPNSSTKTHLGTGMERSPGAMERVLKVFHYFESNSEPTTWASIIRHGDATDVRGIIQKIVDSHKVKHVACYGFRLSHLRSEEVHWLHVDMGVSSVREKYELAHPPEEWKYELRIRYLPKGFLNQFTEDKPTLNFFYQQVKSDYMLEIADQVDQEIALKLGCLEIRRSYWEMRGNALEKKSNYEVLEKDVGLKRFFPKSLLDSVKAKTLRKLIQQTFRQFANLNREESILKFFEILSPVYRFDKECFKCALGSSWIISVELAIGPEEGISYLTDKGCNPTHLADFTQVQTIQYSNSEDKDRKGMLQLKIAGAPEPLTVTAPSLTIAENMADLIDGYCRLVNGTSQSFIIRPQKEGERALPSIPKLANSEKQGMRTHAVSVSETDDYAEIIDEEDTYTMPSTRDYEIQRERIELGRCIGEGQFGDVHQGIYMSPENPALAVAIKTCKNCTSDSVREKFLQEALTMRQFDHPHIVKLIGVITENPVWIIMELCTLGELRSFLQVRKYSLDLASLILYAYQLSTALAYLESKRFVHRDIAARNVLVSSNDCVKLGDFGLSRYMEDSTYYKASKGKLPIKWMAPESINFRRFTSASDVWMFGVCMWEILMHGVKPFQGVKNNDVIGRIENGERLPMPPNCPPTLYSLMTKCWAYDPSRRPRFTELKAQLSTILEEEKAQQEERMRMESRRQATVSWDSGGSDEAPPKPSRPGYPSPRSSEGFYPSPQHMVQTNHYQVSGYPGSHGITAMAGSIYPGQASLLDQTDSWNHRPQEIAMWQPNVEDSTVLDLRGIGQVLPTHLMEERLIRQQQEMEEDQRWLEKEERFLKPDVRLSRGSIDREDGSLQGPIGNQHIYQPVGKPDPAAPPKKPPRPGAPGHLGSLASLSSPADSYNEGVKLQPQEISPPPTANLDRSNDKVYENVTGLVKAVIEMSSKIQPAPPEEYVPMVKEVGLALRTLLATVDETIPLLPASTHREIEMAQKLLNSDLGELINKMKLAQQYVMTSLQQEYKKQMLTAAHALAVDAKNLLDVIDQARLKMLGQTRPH
test_method_notes: small-molecule microarray binders of FAK, primary screen, biochemical, 635/667 nm fluorescence, BSA, DTT (AID 1130);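 note: composite of spot emission at 667 nm and signal to noise over triplicate slides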
condition_info: PTK2 binding, 635 nm fluorescence, higher = more signal
composite z-score vs 0.3: at or above is Criterion met, below is Criterion not met.

- molecule: "C=C(C)c1cc2c(c(CCCCCC)n1)[Si](C(C)C)(C(C)C)OC2"
  group_label: "Criterion not met"
- molecule: "COCCCNC(=O)[C@@]1(Sc2ccc(C)cc2)CC(=O)N(C2CCCCC2)[C@@H]1c1ccc(CO)cc1"
  group_label: "Criterion met"
- molecule: "O[C@@H](Cc1ccccc1)[C@@H](/C=C/C1CC1)N(CC#Cc1ccccc1)Cc1cccc(Cl)c1"
  group_label: "Criterion not met"
- molecule: "CN1C(=O)C2C=CC(C(O)C#Cc3ccccc3)N(Nc3ccccc3)C2C1=O (stereo not given)"
  group_label: "Criterion met"
